Data provenance is PubChem BioAssay (NCATS).

experiment: Viability qHTS for spleen associated tyrosine kinase inhibitor (SYKi) drug resistant MV4-11 cells (AID 1963824); conditions: SYKi-resistant MV4-11 viability, CellTiter-Glo, 72 h; series mostly up to 45 µM; note: nearly all actives have a fitted effect of over 35% in size
Results filed as inconclusive are left out. Activity calls are given as the source filed them. Calls come from the whole dose curve; as a rule, active = well fitted cell-killing curve with a large enough effect; inconclusive = small, poorly fitted or top-dose-only effect, or effect the other way; inactive = no such curve, though single readings can be large or run the other way.
Hello, when you answer, please use one of the following outcomes: yes (1) = active, no (0) = inactive

Cc1scc2c1N(C(=O)CN1CCN(C)CC1)c1ccccc1NC2=O ... no (0)
CC1C(OC(=O)c2ccccc2)C(O)C2C(C(=O)O)=COC(OC3OC(CO)C(O)C(O)C3O)C12 (stereo not given) ... no (0)
COc1c2occc2cc2ccc(=O)oc12 ... no (0)
CN(Cc1ccc(C(=O)O)cc1)c1ccc(OCc2c(-c3c(Cl)cccc3Cl)noc2C2CC2)nc1C(F)(F)F ... yes (1)
O=C(O)c1ccc(OCCN2CCCCC2)cc1 ... no (0)
C#CCN(Cc1cc2c(=O)n(C)c(CN3CCN(C)CC3)nc2cc1Cl)c1ccc(C(=O)NCc2cccnc2)cc1 ... no (0)
CCC[C@@H]1C[C@@H](C(=O)N[C@@H]([C@H]2O[C@H](SC)[C@H](O)[C@@H](O)[C@H]2O)[C@@H](C)O)N(C)C1 ... no (0)
Nc1ncnc2c1ncn2Cc1c(F)cccc1Cl ... no (0)

query: In this assay, the call recorded for CNc1nc(Cc2ccccc2)nc2c1CCNC[C@@H]2C was what?
result: yes (1)

query: # repeat for Cn1cnc2c(F)c(Nc3ccc(Br)cc3F)c(C(=O)NOCCO)cc21
result: yes (1)

query: # repeat for N#Cc1ccc(C(c2ccc(C#N)cc2)n2cncn2)cc1
result: no (0)

query: # repeat for CN1CCN(Cc2ccc(Nc3ncc(Cl)c(Nc4ccccc4S(=O)(=O)N(C)C)n3)cc2)CC1
result: yes (1)

query: # repeat for COc1cc(C=O)ccc1O
result: no (0)

query: # repeat for C[C@@H](O[C@H]1OCCN(Cc2n[nH]c(=O)[nH]2)[C@@H]1c1ccc(F)cc1)c1cc(C(F)(F)F)cc(C(F)(F)F)c1
result: yes (1)

----------
test: Viability qHTS for spleen associated tyrosine kinase inhibitor (SYKi) naive MV4-11 cells (AID 1963823); settings: MV4-11 AML viability, CellTiter-Glo luminescence, 72 h; series mostly up to 45 µM; note: nearly all actives have a fitted effect of over 40% in size
Inconclusive results are not listed. Active and inactive are the calls of the source. Calls follow the shape of the dose curve; as a rule, active = well fitted cell-killing curve with a large enough effect; inconclusive = small, poorly fitted or top-dose-only effect, or effect the other way; inactive = no such curve, though single readings can be large or run the other way.
Hello, when you answer, please use one of the following outcomes: active, inactive

Answered cases to consult:
O=C(O)/C=C\C(=O)O ... inactive
c1ccc(-c2[nH]ncc2-c2ccnc3ccccc23)nc1 ... inactive
C[C@H](CCC(=O)O)[C@H]1CC[C@H]2[C@@H]3C(=O)C[C@@H]4CC(=O)CC[C@]4(C)[C@H]3CC(=O)[C@]12C ... inactive

Could you now consider this next compound?
query: In this assay, the call recorded for O=C(c1ccc(/C=C/c2n[nH]c3ccccc23)cc1)N1CCNCC1 was what?
result: active

----------
test: Cellular viability qHTS for adrenocortical cancer (ACC) cell line NCI-H295R (AID 1963990); conditions: CellTiter-Glo ATP luminescence, 48 h; series mostly up to 46.1 µM; note: nearly all actives have a fitted effect of over 60% in size; note: potency is the fitted concentration of half-maximal effect
Records with an inconclusive call do not appear. Active and inactive are the calls of the source. Calls come from the whole dose curve; as a rule, active = well fitted cell-killing curve with a large enough effect; inconclusive = small, poorly fitted or top-dose-only effect; inactive = flat fitted curve, though single readings scatter.
RECORDED_ENDPOINT: Potency

Some entries whose results are on file:
NCCc1ccn[nH]1 ... inactive
COc1ccc(COc2ccc(Cc3cnc(N)nc3N)cc2OC)cc1 ... inactive
CC(=O)N1C[C@H](O)C[C@H]1C(=O)O ... inactive
Cc1[nH]c(=O)c(C#N)cc1-c1ccc2nccn2c1 ... inactive
C=CC(=O)Nc1cccc(Nc2nc(Nc3ccc(OCCOC)cc3)ncc2F)c1 ... 3980 nM (active)
CC(C(=O)O)c1ccc2c(c1)[nH]c1ccc(Cl)cc12 (stereo not given) ... inactive

Report Potency for each item below.
1. NC/C=C/C(=O)O
2. CC(=O)O[C@@]12CO[C@@H]1C[C@H](O)[C@@]1(C)C(=O)[C@H](O)C3=C(C)[C@@H](OC(=O)[C@H](O)[C@@H](NC(=O)OC(C)(C)C)c4ccccc4)C[C@@](O)([C@@H](OC(=O)c4ccccc4)[C@H]21)C3(C)C
3. CC(C)Oc1ccc(-c2nn([C@@H](C)c3oc4ccc(F)cc4c(=O)c3-c3cccc(F)c3)c3ncnc(N)c23)cc1F

result:
["inactive", "41.1 nM (active)", "inactive"]

query: // returns reported Potency for input CC[N+](C)(CC)CCOC(=O)C(O)(c1ccccc1)C1CCCCC1 (stereo not given)
result: inactive
